# SYSTEM NAME: SYK (Homo sapiens (Human))
# METHOD DESCRIPTION: SYK inhibition assay (phosphorylation of FAM-labeled SYK-specific substrate, Caliper LC-3000)
# Type: biochemical
# MEASUREMENT CONDITIONS: SYK kinase domain (residues 356-635); 5FAM-KKKKEEIYFFFG-NH2 substrate, ATP, 60 min at RT; pIC50 = -log(IC50), IC50 molar
MEASURE NAME: SYK Inhibition (pIC50)
Field format: numeric only.

Item: N[C@@H]1[C@H](Nc2nc(-c3cnn(C4CC4)c3)c3c(c2F)CNC3=O)CCCC1(F)F (relative stereo) | SYK Inhibition (pIC50): 6.8

For record Cc1cccc(Nc2nc(N[C@@H]3COC[C@@H]3N)cc3c2C(=O)NC3)c1 (relative stereo) the listed SYK Inhibition (pIC50) is 5.8

Briefly, SYK Inhibition (pIC50) measured for Cn1cc(-c2nc(N[C@@H]3CC(F)(F)C[C@@H]3N)c(F)c3c2C(=O)NC3)cn1 (relative stereo) : 6.3

Per the record, N[C@@H]1[C@H](Nc2nc(-c3cnn(C(F)F)c3)c3c(c2F)CNC3=O)CCCC1(F)F (relative stereo) has SYK Inhibition (pIC50) of 7.0

---

# SYSTEM NAME: SYK (Homo sapiens (Human))
# METHOD DESCRIPTION: SYK inhibition assay (phosphorylation of FAM-labeled SYK-specific substrate, Caliper LC-3000)
# Format: biochemical
# MEASUREMENT CONDITIONS: SYK kinase domain (residues 356-635); 5FAM-KKKKEEIYFFFG-NH2 substrate, ATP, 60 min at RT; pIC50 = -log(IC50), IC50 molar
Assign SYK Inhibition (pIC50) to each entry below.
A bare number is all that is needed in reply.

Quick note, SYK Inhibition (pIC50) for Cc1cccc(Nc2nc(N[C@H]3COCC[C@H]3N)cc3c2C(=O)NC3)c1 [Example 86] landed at 5.6

Record Cn1cc(-c2nc(N[C@@H]3CCCC(F)(F)[C@@H]3N)c(F)c3c2C(=O)NC3)cn1 (relative stereo) [Example 67] . Reported SYK Inhibition (pIC50): 7.4

Recorded SYK Inhibition (pIC50) (compound Cc1cccc(Nc2nc(N[C@@H]3CCCC[C@@H]3O)nc3c2C(=O)NC3)c1 (relative stereo) [Example 11] ): 5.9
